Attribution: patent US10538555B2

Readings of pIC50 for the listed compounds
Molecular target: Human PD-L1/PD-1 (Homo sapiens)
Construct: TVMV protease cleavage site (C); made in house; host or cells: HEK293T cells
Assay: HTRF Human PD-L1/PD-1 binding assay (PD-1-Ig/PD-L1-His)
Conditions: PD-L1-His 10 nM, PD-1-Ig 20 nM; read-out: HTRF Human PD-L1/PD-1 Binding Assay IC50
Where a SMILES comes first, the peptide text is derived from it. Bridges are numbered along the chain shown (N, C = ends). [ ]: non-standard residue; d: D form. Hyp = O=C(O)[C@@H]1C[C@@H](O)CN1; NMeF = CN[C@@H](Cc1ccccc1)C(=O)O; NMeNle = CCCC[C@H](NC)C(=O)O; NMeA = CN[C@@H](C)C(=O)O; Sar = CNCC(=O)O
// pIC50: -log10(molar conc.)

Before answering, review these 2 worked examples.
| COMPOUND | pIC50 |
| --- | --- |
| CCCC[C@H]1C(=O)N(C)CC(=O)N[C@@H](CC(=O)O)C(=O)N[C@@H](C(C)C)C(=O)N[C@@H](Cc2c[nH]c3ccccc23)C(=O)N[C@@H](Cc2c[nH]c3ccccc23)C(=O)N(C)CC(=O)N[C@@H](Cc2c[nH]c3ccccc23)C(=O)N[C@@H](Cc2ccc(O)cc2)C(=O)N[C@@H](CC(C)C)C(=O)N[C@H](C(=O)NCC(N)=O)CSCC(=O)N[C@@H](Cc2ccccc2)C(=O)N(C)[C@@H](Cc2ccccc2)C(=O)N1C [Example 3234] ({CH2CO}-F[NMeF][NMeNle][Sar]DVWW[Sar]WYLCG-NH2; thioether N-13) | 5.00 |
| CC(C)C[C@@H]1NC(=O)[C@H](Cc2c[nH]cn2)NC(=O)[C@@H]2CCCN2C(=O)[C@H](CC(N)=O)NC(=O)[C@H](C)N(C)C(=O)[C@H](Cc2ccc(O)cc2)NC(=O)CSC[C@@H](C(=O)NCC(N)=O)NC(=O)[C@H](C)NC(=O)[C@H](CC(=O)O)N(C)C(=O)[C@H](CCCCN)N(C)C(=O)[C@H](Cc2c[nH]c3ccccc23)NC(=O)[C@H](CO)NC(=O)[C@H](Cc2c[nH]c3ccccc23)NC(=O)[C@@H]2C[C@@H](O)CN2C1=O | 6.00 |

Then there is this compound:
Could you share which pIC50 value was measured for CCCC[C@H]1C(=O)N(C)[C@@H](CCCC)C(=O)N[C@@H](CC(C)C)C(=O)N[C@H](C(=O)NCC(N)=O)CSCC(=O)N[C@@H](Cc2ccc(O)cc2)C(=O)N(C)[C@@H](C)C(=O)N[C@@H](CC(N)=O)C(=O)N2CCC[C@H]2C(=O)N(C)CC(=O)N[C@@H](CCC(N)=O)C(=O)N2C[C@H](O)C[C@H]2C(=O)N[C@@H](Cc2c[nH]c3ccccc23)C(=O)N[C@@H](CO)C(=O)N[C@@H](Cc2c[nH]c3ccccc23)C(=O)N1C [Example 5262] ({CH2CO}-Y[NMeA]NP[Sar]Q[Hyp]WSW[NMeNle][NMeNle]LCG-NH2; thioether N-14) ?
6.99

====

Biological target: Human PD-L1/PD-1 (Homo sapiens, UniProt Q9NZQ7)
Construct: TVMV protease cleavage site (C); made in house; host or cells: HEK293T cells
Sequence (Q9NZQ7 with tags, fused parts or gaps): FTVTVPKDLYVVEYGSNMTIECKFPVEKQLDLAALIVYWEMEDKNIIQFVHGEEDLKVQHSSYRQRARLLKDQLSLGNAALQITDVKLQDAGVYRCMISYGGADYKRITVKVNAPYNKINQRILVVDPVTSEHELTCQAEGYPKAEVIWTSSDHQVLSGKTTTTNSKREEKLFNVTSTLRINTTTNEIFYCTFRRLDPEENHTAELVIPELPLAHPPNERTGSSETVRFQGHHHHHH
Assay: HTRF Human PD-L1/PD-1 binding assay (PD-1-Ig/PD-L1-His)
Conditions: PD-L1-His 10 nM, PD-1-Ig 20 nM; class symbol; read-out: HTRF Human PD-L1/PD-1 Binding Assay IC50 Range
Where a SMILES comes first, the peptide text is derived from it. Bridges are numbered along the chain shown (N, C = ends). [ ]: non-standard residue; d: D form. ξ: configuration not given here. Bta = N[C@@H](Cc1csc2ccccc12)C(=O)O; NMeF = CN[C@@H](Cc1ccccc1)C(=O)O; NMeNle = CCCC[C@H](NC)C(=O)O; hSer = N[C@@H](CCO)C(=O)O; NMeA = CN[C@@H](C)C(=O)O; Abu = CC[C@H](N)C(=O)O; ξC = NC(CS)C(=O)O; Sar = CNCC(=O)O
OUTCOME MEASURE: IC50

| COMPOUND | IC50 |
| --- | --- |
| CCCC[C@H]1C(=O)N2CCC[C@@H]2C(=O)N[C@@H](CO)C(=O)N[C@@H](CC)C(=O)N(C)[C@@H](Cc2ccccc2)C(=O)N[C@@H](Cc2ccc(O)cc2)C(=O)N(C)CC(=O)N[C@@H](Cc2csc3ccccc23)C(=O)N[C@@H](Cc2ccc(O)cc2)C(=O)N[C@@H](CC(C)C)C(=O)N[C@H](C(=O)NCC(N)=O)CSCC(=O)N[C@@H](Cc2ccccc2)C(=O)N(C)[C@@H](Cc2ccccc2)C(=O)N1C [Example 10059] ({CH2CO}-F[NMeF][NMeNle][dP]S[Abu][NMeF]Y[Sar][Bta]YLCG-NH2; thioether N-13) | 10 to 99.9 nM |

Then there is this compound:
Could you share which IC50 value was measured for CCCC[C@H]1C(=O)N(C)[C@@H](CCCC)C(=O)N[C@@H](CCCNC(=N)N)C(=O)NC(C(=O)NCC(N)=O)CSCC(=O)N[C@@H](Cc2ccc(O)cc2)C(=O)N(C)[C@@H](C)C(=O)N[C@@H](CC(N)=O)C(=O)N2CCC[C@H]2C(=O)N[C@@H](CO)C(=O)N[C@@H](CCO)C(=O)N2CCC[C@H]2C(=O)N[C@@H](Cc2c[nH]c3ccccc23)C(=O)N[C@@H](CO)C(=O)N[C@@H](Cc2c[nH]c3ccccc23)C(=O)N1C (some centres unmarked) [Example 10036] ({CH2CO}-Y[NMeA]NPS[hSer]PWSW[NMeNle][NMeNle]R[ξC]G-NH2; thioether N-14) ?
1 to 9.9 nM

====

Target: Human PD-L1/PD-1 (Homo sapiens, UniProt Q9NZQ7)
Construct: TVMV protease cleavage site (C); made in house; host or cells: HEK293T cells
Assay: HTRF Human PD-L1/PD-1 binding assay (PD-1-Ig/PD-L1-His)
Details: PD-L1-His 10 nM, PD-1-Ig 20 nM; class symbol; read-out: HTRF Human PD-L1/PD-1 Binding Assay IC50 Range
Where a SMILES comes first, the peptide text is derived from it. Bridges are numbered along the chain shown (N, C = ends). [ ]: non-standard residue; d: D form. ξ: configuration not given here. Bta = N[C@@H](Cc1csc2ccccc12)C(=O)O; NMeNle = CCCC[C@H](NC)C(=O)O; hSer = N[C@@H](CCO)C(=O)O; NMeA = CN[C@@H](C)C(=O)O; ξC = NC(CS)C(=O)O
OUTCOME MEASURE: IC50

Could you share which IC50 value was measured for CCCC[C@H]1C(=O)N(C)[C@@H](CCCC)C(=O)N[C@@H](CCCNC(=N)N)C(=O)NC(C(=O)NCC(N)=O)CSCC(=O)N[C@@H](Cc2ccc(O)cc2)C(=O)N(C)[C@@H](C)C(=O)N[C@@H](CC(N)=O)C(=O)N2CCC[C@H]2C(=O)N[C@@H](Cc2cnc[nH]2)C(=O)N[C@@H](CCO)C(=O)N2CCC[C@H]2C(=O)N[C@@H](Cc2c[nH]c3ccccc23)C(=O)N[C@@H](CO)C(=O)N[C@@H](Cc2csc3ccccc23)C(=O)N1C (stereo partly shown) [Example 9126] ({CH2CO}-Y[NMeA]NPH[hSer]PWS[Bta][NMeNle][NMeNle]R[ξC]G-NH2; thioether N-14) ?
1 to 9.9 nM

====

Molecular target: Human PD-L1/PD-1 (Homo sapiens, UniProt Q9NZQ7)
Construct: TVMV protease cleavage site (C); made in house; host or cells: HEK293T cells
Assay: HTRF Human PD-L1/PD-1 binding assay (PD-1-Ig/PD-L1-His)
Settings: PD-L1-His 10 nM, PD-1-Ig 20 nM; class symbol; read-out: HTRF Human PD-L1/PD-1 Binding Assay IC50 Range
Where a SMILES comes first, the peptide text is derived from it. Bridges are numbered along the chain shown (N, C = ends). [ ]: non-standard residue; d: D form. Phe(4-NO2) = N[C@@H](Cc1ccc([N+](=O)[O-])cc1)C(=O)O; Hyp = O=C(O)[C@@H]1C[C@@H](O)CN1; NMeF = CN[C@@H](Cc1ccccc1)C(=O)O; NMeNle = CCCC[C@H](NC)C(=O)O; NMeA = CN[C@@H](C)C(=O)O; dThz = O=C(O)[C@H]1CSCN1; Dab = NCC[C@H](N)C(=O)O; Dap = NC[C@H](N)C(=O)O; Sar = CNCC(=O)O
OUTCOME MEASURE: IC50

Before answering, review these 3 worked examples.
| COMPOUND | STUDY TARGET | OUTCOME MEASURE | REPORTED RESULT |
| --- | --- | --- | --- |
| CCCC[C@H]1C(=O)N2CSC[C@@H]2C(=O)N[C@@H](CN)C(=O)N[C@@H](C(C)C)C(=O)N(C)[C@@H](Cc2ccccc2)C(=O)N[C@@H](Cc2ccc(O)cc2)C(=O)N2CCC[C@@H]2C(=O)N[C@@H](Cc2c[nH]c3ccccc23)C(=O)N[C@@H](Cc2ccc(O)cc2)C(=O)N[C@@H](CC(C)C)C(=O)N[C@H](C(=O)NCC(N)=O)CSCC(=O)N[C@@H](Cc2ccccc2)C(=O)N(C)[C@@H](Cc2ccccc2)C(=O)N1C [Example 10075] ({CH2CO}-F[NMeF][NMeNle][dThz][Dap]V[NMeF]Y[dP]WYLCG-NH2; thioether N-13) | Human PD-L1/PD-1 (Homo sapiens, UniProt Q9NZQ7) | IC50 | 10 to 99.9 nM |
| CCCC[C@H]1C(=O)N(C)[C@@H](CCCC)C(=O)N[C@@H](CC(C)C)C(=O)N[C@H](C(=O)NCC(N)=O)CSCC(=O)N[C@@H](Cc2ccc(O)cc2)C(=O)N(C)[C@@H](C)C(=O)N[C@@H](CC(N)=O)C(=O)N2CCC[C@H]2C(=O)N[C@@H](CN)C(=O)N[C@@H](CC(C)C)C(=O)N2CCC[C@H]2C(=O)N[C@@H](Cc2c[nH]c3ccccc23)C(=O)N[C@@H](CCN)C(=O)N[C@@H](Cc2ccc(O)cc2)C(=O)N1C [Example 6272] ({CH2CO}-Y[NMeA]NP[Dap]LPW[Dab]Y[NMeNle][NMeNle]LCG-NH2; thioether N-14) | Human PD-L1/PD-1 (Homo sapiens, UniProt Q9NZQ7) | IC50 | 1 to 9.9 nM |
| CCCC[C@H]1C(=O)N(C)[C@@H](CCCC)C(=O)N[C@@H](CCC(=O)O)C(=O)N[C@H](C(=O)NCC(N)=O)CSCC(=O)N[C@@H](Cc2ccc(O)cc2)C(=O)N(C)[C@@H](C)C(=O)N[C@@H](CC(N)=O)C(=O)N2CCC[C@H]2C(=O)N[C@@H](CO)C(=O)N[C@@H](CC(C)C)C(=O)N2C[C@H](O)C[C@H]2C(=O)N[C@@H](Cc2c[nH]c3ccccc23)C(=O)N[C@@H](CCC(=O)O)C(=O)N[C@@H](Cc2c[nH]c3ccccc23)C(=O)N1C [Example 5216] ({CH2CO}-Y[NMeA]NPSL[Hyp]WEW[NMeNle][NMeNle]ECG-NH2; thioether N-14) | Human PD-L1/PD-1 (Homo sapiens, UniProt Q9NZQ7) | IC50 | 1 to 9.9 nM |

Then there is this compound:
Kindly state the measured IC50 obtained for CCCC[C@H]1C(=O)N(C)CC(=O)N[C@@H](CC(=O)O)C(=O)N[C@@H](C(C)C)C(=O)N(C)[C@@H](Cc2ccccc2)C(=O)N[C@@H](Cc2ccc(O)cc2)C(=O)N(C)CC(=O)N[C@@H](Cc2c[nH]c3ccccc23)C(=O)N[C@@H](Cc2ccc(O)cc2)C(=O)N[C@@H](CC(C)C)C(=O)N[C@H](C(=O)NCC(N)=O)CSCC(=O)N[C@@H](Cc2ccc([N+](=O)[O-])cc2)C(=O)N(C)[C@@H](Cc2ccccc2)C(=O)N1C [Example 3244] ({CH2CO}-[Phe(4-NO2)][NMeF][NMeNle][Sar]DV[NMeF]Y[Sar]WYLCG-NH2; thioether N-13) with Human PD-L1/PD-1 (Homo sapiens, UniProt Q9NZQ7).
10 to 99.9 nM
